# EXPERIMENTAL SYSTEM: Aurora B (Homo sapiens, UniProt Q96GD4)
# Construct: HT-29 cells grown in complete growth media
# Sequence (Q96GD4 whole entry): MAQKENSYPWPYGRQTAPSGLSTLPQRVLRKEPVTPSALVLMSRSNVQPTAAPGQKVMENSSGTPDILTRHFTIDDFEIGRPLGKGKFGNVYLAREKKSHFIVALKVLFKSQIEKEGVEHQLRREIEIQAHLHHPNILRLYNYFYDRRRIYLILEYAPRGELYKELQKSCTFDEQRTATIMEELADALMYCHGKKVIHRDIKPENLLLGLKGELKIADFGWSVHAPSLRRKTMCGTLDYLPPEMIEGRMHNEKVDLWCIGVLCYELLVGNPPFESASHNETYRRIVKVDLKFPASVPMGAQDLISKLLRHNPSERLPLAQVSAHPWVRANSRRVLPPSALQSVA
# ASSAY TEXT: Aurora B cell mechanistic assay (HT-29), phospho-Histone H3 (Ser10) ELISA
# Type: cell-based
# CONDITION DESCRIPTION: HT-29 cell line; inhibition of phospho-Histone H3 (Ser10); at least duplicate experiments (italicized if single experiment); read-out: Aurora B mech IC50
pIC50: −log10 of the molar value.
Would you mind telling me the reported pIC50 of each entry?

Ask: Name the recorded pIC50 for CCc1nn(CC(C)(C)O)cc1-c1cnc2[nH]cc([C@H](C)c3c(OC(F)F)ccc(F)c3Cl)c2c1 .
Reply: < 6.00

Ask: Likewise for COc1ccc(F)c(Cl)c1[C@@H](C)c1c[nH]c2ncc(-c3cnn(C)c3C)cc12 ?
Reply: < 6.00

Ask: Likewise for COc1ccc(F)c(Cl)c1[C@@H](C)c1c[nH]c2ncc(-c3cn(C)nc3OC)cc12 ?
Reply: < 6.00

Ask: Likewise for CCc1c(-c2cnc3[nH]cc([C@H](C)c4c(OC)ccc(F)c4Cl)c3c2)cnn1[C@H]1CC[C@H](O)CC1 ?
Reply: < 6.00

Ask: Likewise for CCc1nn(CC(C)(C)O)cc1-c1cnc2[nH]cc([C@H](C)c3c(OC)ccc(F)c3Cl)c2c1 ?
Reply: < 6.00

Ask: Likewise for COc1ccc(F)c(Cl)c1[C@@H](C)c1c[nH]c2ncc(-c3cnn(C)c3OC)cc12 ?
Reply: < 6.00

Ask: Likewise for CCc1nn([C@H]2CC[C@H](O)CC2)cc1-c1cnc2[nH]cc([C@H](C)c3c(OC(F)F)ccc(F)c3Cl)c2c1 ?
Reply: 6.00 to 6.70

Ask: Likewise for CCc1nn([C@H]2CC[C@H](O)CC2)cc1-c1cnc2[nH]cc([C@H](C)c3c(OC)ccc(F)c3Cl)c2c1 ?
Reply: < 6.00

Ask: Likewise for CCc1c(-c2cnc3[nH]cc([C@H](C)c4c(OC)ccc(F)c4Cl)c3c2)cnn1CC(C)(C)O ?
Reply: < 6.00

Ask: Likewise for Cc1nn(C[C@@H](O)CO)c(C)c1-c1cnc2[nH]cc([C@H](C)c3c(Cl)ccc(F)c3Cl)c2c1 ?
Reply: < 6.00

Ask: Likewise for COc1ccc(F)c(Cl)c1[C@@H](C)c1c[nH]c2ncc(-c3cnc(C)n3C)cc12 ?
Reply: < 6.00

Ask: Likewise for Cc1c(-c2cnc3[nH]cc([C@H](C)c4c(Cl)ccc(F)c4Cl)c3c2)cnn1[C@H]1CC[C@H](O)CC1 ?
Reply: < 6.00

Ask: Likewise for COc1ccc(F)c(Cl)c1[C@@H](C)c1c[nH]c2ncc(-c3cn(CC(C)(C)O)nc3C)cc12 ?
Reply: 6.00 to 6.70

Ask: Likewise for COc1ccc(F)c(Cl)c1[C@@H](C)c1c[nH]c2ncc(-c3cn(C)nc3CO)cc12 ?
Reply: 6.00 to 6.70

Ask: Likewise for COc1ccc(F)c(Cl)c1[C@@H](C)c1c[nH]c2ncc(-c3cnn([C@H]4CC[C@H](O)CC4)c3C)cc12 ?
Reply: < 6.00
